Reference for the values: ChEMBL document CHEMBL1240419

# Tested on: Staphylococcus aureus
# assayNotes: Antibacterial activity against erythromycin, methicillin-resistant Staphylococcus aureus A333 by broth microdilution method
# Format: functional
measureName: MIC (µg/mL)
Numbers only, in µg/mL.

INSERT INTO measurements (smilesrepresentation, measurename, reading) VALUES
  ('CC[C@H]1OC(=O)[C@H](C)[C@@H](OC(=O)NCc2ccc(C)cc2)[C@H](C)[C@@H](O[C@@H]2O[C@H](C)C[C@H](N(C)C)[C@H]2O)[C@](C)(OC)C[C@@H](C)C(=O)[C@@H](C)[C@@H](OC)[C@]1(C)O', 'MIC', 64);

MIC for CC[C@H]1OC(=O)[C@H](C)[C@@H](OC(=O)NCCc2ccccc2F)[C@H](C)[C@@H](O[C@@H]2O[C@H](C)C[C@H](N(C)C)[C@H]2O)[C@](C)(OC)C[C@@H](C)C(=O)[C@@H](C)[C@@H](OC)[C@]1(C)O is 64
